Target: T1, cyIL-18Rβ-HisAvi (cynomolgus monkey)
T1 construct: Soluble analyte in SPR; also called cyno IL-18Rβ; cynomolgus monkey IL-18Rβ
T1 chain: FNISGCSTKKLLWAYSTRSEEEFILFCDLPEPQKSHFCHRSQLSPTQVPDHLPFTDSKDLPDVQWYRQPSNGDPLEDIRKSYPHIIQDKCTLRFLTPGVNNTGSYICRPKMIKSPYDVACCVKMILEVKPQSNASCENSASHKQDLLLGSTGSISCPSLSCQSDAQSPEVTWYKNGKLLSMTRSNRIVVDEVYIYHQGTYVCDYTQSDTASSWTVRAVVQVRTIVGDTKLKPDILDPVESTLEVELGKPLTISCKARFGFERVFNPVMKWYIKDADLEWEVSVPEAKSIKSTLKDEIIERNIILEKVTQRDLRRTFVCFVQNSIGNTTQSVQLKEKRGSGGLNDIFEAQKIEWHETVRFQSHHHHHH
Assay: SPR T200, mAb on anti-hFc, 37C, pH 6
So I've got a bunch of binders here, and I need their koff values.
Answers are plain numbers, in s⁻¹.

{"columns": ["Binder", "koff [s⁻¹]"],
 "data": [
  ["P21-V1 (antibody, human IgG1, kappa, V domains shown, Variant of P21) VH: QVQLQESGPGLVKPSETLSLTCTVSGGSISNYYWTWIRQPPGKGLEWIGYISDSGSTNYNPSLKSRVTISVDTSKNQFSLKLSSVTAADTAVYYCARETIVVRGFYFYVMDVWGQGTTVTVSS VL: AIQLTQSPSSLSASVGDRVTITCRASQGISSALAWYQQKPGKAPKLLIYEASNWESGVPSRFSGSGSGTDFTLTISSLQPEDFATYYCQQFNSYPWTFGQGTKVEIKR", 0.0031],
  ["P20-V2 (antibody, human IgG1, kappa, V domains shown, Variant of P20) VH: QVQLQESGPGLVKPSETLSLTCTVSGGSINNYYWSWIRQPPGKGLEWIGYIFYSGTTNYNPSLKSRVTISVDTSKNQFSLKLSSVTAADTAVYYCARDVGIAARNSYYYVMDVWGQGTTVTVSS VL: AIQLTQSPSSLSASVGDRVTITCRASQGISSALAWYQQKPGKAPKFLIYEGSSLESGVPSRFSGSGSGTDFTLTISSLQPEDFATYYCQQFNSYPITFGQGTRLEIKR", 0.00023],
  ["P20-V3 (antibody, human IgG1, kappa, V domains shown, Variant of P20) VH: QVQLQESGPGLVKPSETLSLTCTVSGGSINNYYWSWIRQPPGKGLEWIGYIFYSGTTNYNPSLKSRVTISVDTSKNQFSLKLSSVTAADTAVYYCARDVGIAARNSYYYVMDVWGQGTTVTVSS VL: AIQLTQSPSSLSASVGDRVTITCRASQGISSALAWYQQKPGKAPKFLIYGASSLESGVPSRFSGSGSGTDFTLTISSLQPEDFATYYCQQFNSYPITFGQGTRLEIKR", 0.00042]
]}

May I ask what koff has been recorded for P20-V1 (antibody, human IgG1, kappa, V domains shown, Variant of P20) VH: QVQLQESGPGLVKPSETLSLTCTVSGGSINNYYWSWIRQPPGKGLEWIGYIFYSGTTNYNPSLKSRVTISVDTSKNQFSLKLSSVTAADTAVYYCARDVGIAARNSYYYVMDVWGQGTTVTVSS VL: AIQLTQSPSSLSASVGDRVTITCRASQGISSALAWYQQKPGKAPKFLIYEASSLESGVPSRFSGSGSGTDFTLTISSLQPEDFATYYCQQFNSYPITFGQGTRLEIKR ? 0.00028
